Assay: Bioavailability in vivo in rats: lithium in plasma and brain by ICP-OES after oral administration
Conditions: rat brain, 4 mEq/kg lithium oral, non-compartmental
For each of the compounds below, state its Tmax (brain).
Write the number in h without appending the unit.

Item: COc1ccccc1C(=O)[O-].O=C(O)[C@@H]1CCCN1.[Li+] [Compound 1, [Li(2-methoxybenzoate)(L-proline)]n] | Tmax (brain): 24

Item: O=C([O-])[O-].[Li+].[Li+] [Lithium carbonate, lithium carbonate, reference compound] | Tmax (brain): 24

Item: COc1cccc(C(=O)[O-])c1.O=C(O)[C@@H]1CCCN1.[Li+] [Compound 6, [Li(3-methoxybenzoate)(L-proline)]n] | Tmax (brain): 24

Item: COc1ccc(C(=O)[O-])cc1.O=C(O)[C@@H]1CCCN1.[Li+] [Compound 5, [Li(4-methoxybenzoate)(L-proline)]n] | Tmax (brain): 48

---

Experiment: Stability of crystalline material under warm humid conditions (40° C., 75% relative humidity), PXRD before and after
Assay type: physicochemical
Settings: stored at 40° C., 75% relative humidity; stable = retained crystal form for at least two weeks by PXRD
Attribute measured: Stable?

Worked cases, Stable? given:
CC1(C)C2CCC1(CS(=O)(=O)[O-])C(=O)C2.CNCC(=O)O.O.O.[Li+] (centres unmarked) : No
NC(=O)c1ccncc1.NC(=O)c1ccncc1.O=C([O-])/C=C/C(=O)[O-].[Li+].[Li+] [Compound 2, [Li2(fumarate)(isonicotinamide)2]n] : Yes
O=C(O)C(=O)O.O=C(O)C(=O)O.O=C([O-])C(=O)O.[Li+].c1c[nH]cn1.c1c[nH]cn1 : No
CC1(C)C2CCC1(CS(=O)(=O)[O-])C(=O)C2.CC1(C)C2CCC1(CS(=O)(=O)[O-])C(=O)C2.NC(N)=O.NC(N)=O.O.O.[Li+].[Li+] (centres unmarked) : No
NCCC(=O)O.NCCC(=O)O.O.O=C([O-])C(=O)[O-].[Li+].[Li+] [Compound 25, [Li2(oxalate)(beta-alanine)2(water)]n] : No
CNCC(=O)O.O.O=C([O-])c1cccnc1.[Li+] [Compound 9, [Li(nicotinate)(sarcosine)(water)]n] : No
COc1ccc(C(=O)[O-])cc1.O=C(O)[C@@H]1CCCN1.[Li+] [Compound 5, [Li(4-methoxybenzoate)(L-proline)]n] : Yes
CNCC(=O)O.O.O=C([O-])c1ccc(O)cc1.[Li+] : No
CC1=CC(=O)[N-]S(=O)(=O)O1.O.[Li+] [Compound 23, [Li(acesulfame)(water)]n] : No
COc1cccc(C(=O)[O-])c1.O=C(O)[C@@H]1CCCN1.[Li+] [Compound 6, [Li(3-methoxybenzoate)(L-proline)]n] : Yes

Item: O=C(O)[C@@H]1CCCN1.O=C([O-])c1ccccc1.[Li+] [Compound 12, [Li(benzoate)(L-proline)]n] | Stable?: Yes

Item: CC(O)C(=O)[O-].CC(O)C(=O)[O-].NC(N)=O.O.O.[Li+].[Li+] (centres unmarked) [Compound 21, [(Li2(lactate)2(water)2)(urea)]n] | Stable?: No

Item: O=C([O-])c1ccccc1.[Li+] [Compound 18, [Li (benzoate)]n] | Stable?: Yes

Item: O=C([O-])CCC(=O)[O-].[Li+].[Li+] [Compound 16, [Li2 (succinate)]n] | Stable?: Yes

---

For each of the molecules below, state its Cmax (plasma).
Assay: Bioavailability in vivo in rats: lithium in plasma and brain by ICP-OES after oral administration
Conditions: rat plasma, 4 mEq/kg lithium oral, non-compartmental
Reply with the number and its unit after it.

Item: COc1cccc(C(=O)[O-])c1.O=C(O)[C@@H]1CCCN1.[Li+] [Compound 6, [Li(3-methoxybenzoate)(L-proline)]n] | Cmax (plasma): 6.3833 µg/mL

Item: O=C([O-])[O-].[Li+].[Li+] [Lithium carbonate, lithium carbonate, reference compound] | Cmax (plasma): 8.4133 µg/mL

Item: COc1ccc(C(=O)[O-])cc1.O=C(O)[C@@H]1CCCN1.[Li+] [Compound 5, [Li(4-methoxybenzoate)(L-proline)]n] | Cmax (plasma): 6.0800 µg/mL

Item: COc1ccccc1C(=O)[O-].O=C(O)[C@@H]1CCCN1.[Li+] [Compound 1, [Li(2-methoxybenzoate)(L-proline)]n] | Cmax (plasma): 4.1200 µg/mL

---

Assay: Bioavailability in vivo in rats: lithium in plasma and brain by ICP-OES after oral administration
Details: rat plasma, 4 mEq/kg lithium oral, terminal phase
Attribute measured: t½_Lambda_z (plasma) (h)
Write the number in h without appending the unit.

Item: COc1ccccc1C(=O)[O-].O=C(O)[C@@H]1CCCN1.[Li+] [Compound 1, [Li(2-methoxybenzoate)(L-proline)]n] | t½_Lambda_z (plasma): 12.9141

Item: COc1ccc(C(=O)[O-])cc1.O=C(O)[C@@H]1CCCN1.[Li+] [Compound 5, [Li(4-methoxybenzoate)(L-proline)]n] | t½_Lambda_z (plasma): 16.5057

Item: O=C([O-])[O-].[Li+].[Li+] [Lithium carbonate, lithium carbonate, reference compound] | t½_Lambda_z (plasma): 7.3913

Item: COc1cccc(C(=O)[O-])c1.O=C(O)[C@@H]1CCCN1.[Li+] [Compound 6, [Li(3-methoxybenzoate)(L-proline)]n] | t½_Lambda_z (plasma): 10.4363

---

Test: Bioavailability in vivo in rats: lithium in plasma and brain by ICP-OES after oral administration
Conditions: rat brain, relative to lithium carbonate
Attribute measured: Relative Brain BA (UL crystal forms, oral vs Li2CO3, oral) (%)
Write the number in % without appending the unit.

Item: O=C([O-])[O-].[Li+].[Li+] [Lithium carbonate, lithium carbonate, reference compound] | Relative Brain BA (UL crystal forms, oral vs Li2CO3, oral): 100.00

Item: COc1ccc(C(=O)[O-])cc1.O=C(O)[C@@H]1CCCN1.[Li+] [Compound 5, [Li(4-methoxybenzoate)(L-proline)]n] | Relative Brain BA (UL crystal forms, oral vs Li2CO3, oral): 98.70

Item: COc1ccccc1C(=O)[O-].O=C(O)[C@@H]1CCCN1.[Li+] [Compound 1, [Li(2-methoxybenzoate)(L-proline)]n] | Relative Brain BA (UL crystal forms, oral vs Li2CO3, oral): 74.12

Item: COc1cccc(C(=O)[O-])c1.O=C(O)[C@@H]1CCCN1.[Li+] [Compound 6, [Li(3-methoxybenzoate)(L-proline)]n] | Relative Brain BA (UL crystal forms, oral vs Li2CO3, oral): 74.33

---

For each of the compounds below, state its Relative Plasma BA (UL crystal forms, oral vs Li2CO3 oral).
Experiment: Bioavailability in vivo in rats: lithium in plasma and brain by ICP-OES after oral administration
Conditions: rat plasma, relative to lithium carbonate
Protocol: Male Sprague-Dawley rats, weighing 240-290 g, were treated through gastric intubation with formulations of lithium and compared with lithium carbonate as a reference. For each formulation a group of 12 rats was treated. […] The analysis was conducted at the fixed wavelength of lithium (λ=670.784 nm) and the intensity of the radiation emitted by each sample was measured and compared standard solutions. […]

Item: COc1ccccc1C(=O)[O-].O=C(O)[C@@H]1CCCN1.[Li+] [Compound 1, [Li(2-methoxybenzoate)(L-proline)]n] | Relative Plasma BA (UL crystal forms, oral vs Li2CO3 oral): 58.42%

Item: COc1ccc(C(=O)[O-])cc1.O=C(O)[C@@H]1CCCN1.[Li+] [Compound 5, [Li(4-methoxybenzoate)(L-proline)]n] | Relative Plasma BA (UL crystal forms, oral vs Li2CO3 oral): 90.41%

Item: COc1cccc(C(=O)[O-])c1.O=C(O)[C@@H]1CCCN1.[Li+] [Compound 6, [Li(3-methoxybenzoate)(L-proline)]n] | Relative Plasma BA (UL crystal forms, oral vs Li2CO3 oral): 74.07%

Item: O=C([O-])[O-].[Li+].[Li+] [Lithium carbonate, lithium carbonate, reference compound] | Relative Plasma BA (UL crystal forms, oral vs Li2CO3 oral): 100.00%

---

Experiment: Bioavailability in vivo in rats: lithium in plasma and brain by ICP-OES after oral administration
Details: rat plasma, 4 mEq/kg lithium oral, non-compartmental
Experimental: Male Sprague-Dawley rats, weighing 240-290 g, were treated through gastric intubation with formulations of lithium and compared with lithium carbonate as a reference. For each formulation a group of 12 rats was treated. […] The analysis was conducted at the fixed wavelength of lithium (λ=670.784 nm) and the intensity of the radiation emitted by each sample was measured and compared standard solutions. […]
Attribute measured: Tmax (plasma) (h)
Write the number in h without appending the unit.

Item: O=C([O-])[O-].[Li+].[Li+] [Lithium carbonate, lithium carbonate, reference compound] | Tmax (plasma): 24

Item: COc1cccc(C(=O)[O-])c1.O=C(O)[C@@H]1CCCN1.[Li+] [Compound 6, [Li(3-methoxybenzoate)(L-proline)]n] | Tmax (plasma): 24

Item: COc1ccccc1C(=O)[O-].O=C(O)[C@@H]1CCCN1.[Li+] [Compound 1, [Li(2-methoxybenzoate)(L-proline)]n] | Tmax (plasma): 24

Item: COc1ccc(C(=O)[O-])cc1.O=C(O)[C@@H]1CCCN1.[Li+] [Compound 5, [Li(4-methoxybenzoate)(L-proline)]n] | Tmax (plasma): 24

All figures here come from patent US12234248B2.
